Values were extracted from patent US20240101531A1.

- tgt: human KV7.2/KV7.3 (Homo sapiens (Human), UniProt O43525+O43526)
- method_description: Potassium flux assay (IPG-2 AM dye)
- setup_conditions: TREX HEK 293 or HEK 293 cells expressing human KV7.2/KV7.3; arithmetic mean values
pEC50: −log10 of the molar value.
endpoint_name: pEC50

## Task What value of measured pEC50 is listed for `Clc1ncc(Nc2nccc3cc(OCC4COC4)ccc23)cn1` ?
## Result > 6.00

## Task What value of measured pEC50 is listed for `O=C(NCC1CC1)c1ccc2c(Nc3ccc(Cl)nc3)nccc2c1` ?
## Result 4.52 to 5.00

* * *

- tgt: human KV7.2/KV7.3 (Homo sapiens (Human), UniProt O43525+O43526)
- method_description: Potassium flux assay (IPG-2 AM dye)
- setup_conditions: TREX HEK 293 or HEK 293 cells expressing human KV7.2/KV7.3; arithmetic mean values
pEC50: −log10 of the molar value.
Recorded pEC50 values for a group of compounds are listed next.

Previously resolved entries follow.
F[C@H]1C[C@H]1COc1ccc2c(Nc3ccc(Cl)nc3)nccc2c1 | 5.00 to 6.00
O=C(C1CC1)N1CCC(Oc2ccc3c(Nc4ccc(Cl)nc4)nccc3c2)CC1 | 5.00 to 6.00

With those in mind, consider the next compound.
## Task Give recorded pEC50 with human KV7.2/KV7.3 (Homo sapiens (Human), UniProt O43525+O43526) for the following compound: `Clc1ccc(Nc2nccc3cc(Cc4ccccn4)ccc23)cn1`
## Result 5.00 to 6.00

* * *

- tgt: human KV7.2/KV7.3 (Homo sapiens (Human), UniProt O43525+O43526)
- method_description: Potassium flux assay (IPG-2 AM dye)
- setup_conditions: TREX HEK 293 or HEK 293 cells expressing human KV7.2/KV7.3; arithmetic mean values
pEC50: −log10 of the molar value.
Recorded pEC50 values for a group of compounds are listed next.

CC(CN1CCOCC1)Oc1ccc2c(Nc3ccc(Cl)nc3)nccc2c1 (centres unmarked) | 5.00 to 6.00
Cc1ccc(Nc2nccc3cc(OCC4CC4)cnc23)cn1 | 5.00 to 6.00
Clc1ccc(Nc2nccc3cc(N4CCCC4)ccc23)cn1 | 5.00 to 6.00
Clc1ccc(Nc2nccc3cc(OC4CC5(COC5)C4)ccc23)cn1 | > 6.00
C[C@@H]1COCCN1CCOc1ccc2c(Nc3ccc(Cl)nc3)nccc2c1 | 5.00 to 6.00
FC1CN(CCOc2ccc3c(Nc4ccc(Cl)nc4)nccc3c2)C1 | 5.00 to 6.00
Clc1ccc(Nc2nccc3cc(OCc4cnccn4)ccc23)cn1 | 4.52 to 5.00
COCCOc1ccc2c(Nc3ccc(Cl)nc3)nccc2c1 | 5.00 to 6.00

## Task What value of measured pEC50 is listed for `CN(C)C(=O)/C=C/c1ccc2c(Nc3ccc(Cl)nc3)nccc2c1` ?
## Result 5.00 to 6.00

## Task What value of measured pEC50 is listed for `Clc1ccc(Nc2nccc3cc(OCc4cccnc4)ccc23)cn1` ?
## Result > 6.00

## Task What value of measured pEC50 is listed for `Clc1ccc2c(Nc3ccc(Cl)nc3)nccc2c1` ?
## Result 4.52 to 5.00

* * *

- tgt: human KV7.2/KV7.3 (Homo sapiens (Human), UniProt O43525+O43526)
- method_description: Potassium flux assay (IPG-2 AM dye)
- setup_conditions: TREX HEK 293 or HEK 293 cells expressing human KV7.2/KV7.3; arithmetic mean values
pEC50: −log10 of the molar value.
Recorded pEC50 values for a group of compounds are listed next.

Previously resolved entries follow.
Cn1ccc(COc2ccc3c(Nc4ccc(Cl)nc4)nccc3c2)n1 | > 6.00
Clc1ncc(Nc2nccc3cc(OCc4cnoc4)ccc23)cn1 | > 6.00
Cc1nn(C)cc1[C@@H](C)Oc1ccc2c(Nc3ccc(Cl)nc3)nccc2c1 | 5.00 to 6.00

## Task What value of measured pEC50 is listed for `FC1(F)CC(COc2ccc3c(Nc4ccc(Cl)nc4)nccc3c2)C1` ?
## Result 5.00 to 6.00

## Task What value of measured pEC50 is listed for `Clc1ccc(Nc2nccc3cc(O[C@@H]4CCC5(COC5)C4)ccc23)cn1` ?
## Result > 6.00

## Task What value of measured pEC50 is listed for `Clc1ccc(Nc2nccc3cc(OCCn4ccnc4)ccc23)cn1` ?
## Result ≤ 4.52

## Task What value of measured pEC50 is listed for `O=S1(=O)CC[C@@H](Oc2ccc3c(Nc4ccc(Cl)nc4)nccc3c2)C1` ?
## Result 5.00 to 6.00

## Task What value of measured pEC50 is listed for `Cc1ncc(Nc2nccc3cc(O[C@H]4CCC[C@@H](O)C4)ccc23)cn1` ?
## Result > 6.00

## Task What value of measured pEC50 is listed for O[C@@H]1CCCC[C@H]1Oc1ccc2c(Nc3ccc(Cl)nc3)nccc2c1 (relative stereo) ?
## Result > 6.00

## Task What value of measured pEC50 is listed for `Cc1ncc(Nc2nccc3cc(OCC(F)F)ccc23)cn1` ?
## Result 5.00 to 6.00

## Task What value of measured pEC50 is listed for `Clc1ccc(Nc2nccc3cc(O[C@H]4CCC5(COC5)C4)ccc23)cn1` ?
## Result > 6.00

## Task What value of measured pEC50 is listed for `O[C@H]1CCC[C@@H](Oc2ccc3c(Nc4ccc(Cl)nc4)nccc3c2)C1` ?
## Result > 6.00

## Task What value of measured pEC50 is listed for `C[C@@](O)(COc1ccc2c(Nc3ccc(Cl)nc3)nccc2c1)C(F)(F)F` ?
## Result > 6.00

## Task What value of measured pEC50 is listed for CS(=O)(=Nc1ccc2c(Nc3ccc(Cl)nc3)nccc2c1)C1CC1 (stereo in doubt) [Example 274] ?
## Result > 6.00

## Task What value of measured pEC50 is listed for `C[C@](O)(COc1ccc2c(Nc3ccc(Cl)nc3)nccc2c1)C(F)(F)F` ?
## Result 5.00 to 6.00

## Task What value of measured pEC50 is listed for `Cn1cc(CNc2ccc3c(Nc4ccc(Cl)nc4)nccc3c2)cn1` ?
## Result 5.00 to 6.00

## Task What value of measured pEC50 is listed for `Clc1ccc(Nc2nccc3cc(OC4CCN(C5COC5)CC4)ccc23)cn1` ?
## Result 5.00 to 6.00

## Task What value of measured pEC50 is listed for `N#CC1(COc2ccc3c(Nc4ccc(Cl)nc4)nccc3c2)CC1` ?
## Result > 6.00

## Task What value of measured pEC50 is listed for `F[C@H]1C[C@H](Oc2ccc3c(Nc4ccc(Cl)nc4)nccc3c2)C1` ?
## Result 5.00 to 6.00
